pEC50 listing for selected molecules.
# tested.on: GLP-1R (Homo sapiens, UniProt P43220)
# Sequence (P43220 24-463): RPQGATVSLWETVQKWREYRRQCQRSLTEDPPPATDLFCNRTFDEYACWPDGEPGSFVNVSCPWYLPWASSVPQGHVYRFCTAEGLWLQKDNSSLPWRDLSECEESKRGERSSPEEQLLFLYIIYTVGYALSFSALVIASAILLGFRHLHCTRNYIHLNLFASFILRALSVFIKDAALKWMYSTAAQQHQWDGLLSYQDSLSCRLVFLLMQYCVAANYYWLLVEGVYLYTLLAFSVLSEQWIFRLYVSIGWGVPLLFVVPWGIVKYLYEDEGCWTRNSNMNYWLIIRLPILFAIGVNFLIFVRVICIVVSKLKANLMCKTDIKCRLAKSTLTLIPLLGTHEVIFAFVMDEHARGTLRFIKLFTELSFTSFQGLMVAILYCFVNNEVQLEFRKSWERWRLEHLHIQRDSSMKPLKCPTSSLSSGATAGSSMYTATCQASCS
# protocol.text: EndoC cAMP Accumulation Assay
# protocol.conditions: EndoC-βH1 human pancreatic β cell line; HTRF cAMP accumulation
Just the number, please; pEC50 means minus log10 of the concentration in mol/L.

CCn1cncc1Cn1c(CN2C[C@@H]3[C@H](C2)[C@H]3c2cccc3c2O[C@](C)(c2ccc(Cl)cn2)O3)nc2c(Cl)cc(C(=O)O)cc21 (single isomer, unassigned) :: 8.12
CC1(c2ccc(Cl)cc2F)Oc2cccc([C@H]3[C@@H]4CN(Cc5nc6ccc(C(=O)O)cc6n5CC5CCO5)C[C@@H]43)c2O1 (some centres unmarked) :: 7.16
C[C@@]1(c2ccc(Cl)cn2)Oc2cccc([C@H]3[C@@H]4CN(Cc5nc6c(F)cc(C(=O)O)cc6n5C[C@@H]5CCO5)C[C@@H]43)c2O1 (relative stereo) :: 7.24
COc1cc(C(=O)O)cc2c1nc(CN1C[C@@H]3[C@H](C1)[C@H]3c1cccc3c1O[C@](C)(c1ccc(Cl)cn1)O3)n2CC1CCO1 (single isomer, unassigned) [Example 4b] :: 7.85

Let's switch to this molecule now.
*Q* Fill in the blank: the reported pEC50 of C[C@@]1(c2ccc(Cl)cn2)Oc2cccc([C@H]3[C@@H]4CN(Cc5nc6c(F)cc(C(=O)O)cc6n5CCn5cccn5)C[C@@H]43)c2O1 (single isomer, unassigned) is ____.
*A* 6.82

====

# pEC50 annotations
# tested.on: human GLP-1R receptor (Homo sapiens, UniProt P43220, L260F)
# Sequence (P43220 24-463 L260F): as the sequence (P43220 24-463) above, with L237F counted along it
# protocol.text: CHOK1 GLP-1R cAMP Assay
# protocol.conditions: CHO-K1 cell line stably expressing human GLP-1R (Leu260Phe variant); HTRF cAMP; agonist activity
# Description: A cell line stably expressing the human GLP-1R receptor (NM_002062.5, including the naturally-occurring variant Leu260Phe) in a CHO-K1 (ATCC® CCL-61™) was used for assay. GLP-1 receptor mediated agonist activity was determined in a cell-based assay measuring cyclic adenosine monophosphate (cAMP) levels in cells using Homogeneous Time-Resolved Fluorescence (HTRF) cAMP detection kit (CisBio catalog #62AM4PEC, cAMP Gs Dynamic range kit). […]
pEC50 here: minus log base 10 of the concentration, concentration in moles per litre.

The cases that follow already have their pEC50 on record.
CCn1cncc1Cn1c(CN2C[C@@H]3[C@H](C2)[C@H]3c2cccc3c2O[C@](C)(c2ccc(Cl)cn2)O3)nc2c(F)cc(C(=O)O)cc21 (relative stereo) :: 7.59
C[C@@]1(c2ccc(Cl)cn2)Oc2cccc([C@H]3[C@@H]4CN(Cc5nc6c(Cl)cc(C(=O)O)cc6n5CC5CCO5)C[C@@H]43)c2O1 (relative stereo) :: 7.62
CCn1cncc1Cn1c(CN2C[C@@H]3[C@H](C2)[C@H]3c2cccc3c2O[C@](C)(c2ccc(Cl)cn2)O3)nc2c(OC)cc(C(=O)O)cc21 (relative stereo) :: 8.09
CCn1cncc1Cn1c(CN2C[C@@H]3[C@H](C2)[C@H]3c2cccc3c2O[C@](C)(c2ccc(Cl)cn2)O3)nc2c(Cl)cc(C(=O)O)cc21 (single isomer, unassigned) :: 7.52

*Q* Give recorded pEC50 with human GLP-1R receptor (Homo sapiens, UniProt P43220, L260F) for the following molecule: C[C@@]1(c2ccc(Cl)cn2)Oc2cccc([C@H]3[C@@H]4CN(Cc5nc6c(F)cc(C(=O)O)cc6n5CCn5cccn5)C[C@@H]43)c2O1 (single isomer, unassigned)
*A* 6.59
